# assay-name: protein stability index of a GFP-peptide fusion (GPS, HEK-293T) (PSI 1-6); higher = more stable;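 also: 24-mer peptide tiles fused after GFP, lentivirally expressed, FACS-sorted into six equal bins by GFP/DsRed ratio, decoded by Illumina sequencing, PSI is the read-weighted mean bin number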
# cond: treatment: DMSO; c terminus: a fixed tail appended
observation-type: protein stability index

The examples below pair each entry with its known result.
>>> value("SELCIWLGSQIKSLCNLEESITSA [FAM98B]")
1.97
>>> value("SEDAVGGATLGQTTSEEAVGGATL [HDAC6]")
5.54
>>> value("YHSQDELGGFSHWGRLTSYSGGGY [PKD2L1]")
2.66
>>> value("SKLEERFGPDSKSSALACTLPTLP [NCF4]")
4.04
>>> value("YKEKFGITDLPRIDVSKREPPPVK [EFHC1]")
3.67

Request: Recorded protein stability index of PNFVKDLEEDLYELFKKDPGFDRG [PI4K2A] , please.
Response: 3.79

Request: Please give the measured protein stability index for this sequence: ELESLSAIEAELEKVAHQLQALRR [CHGA]
Response: 4.74

###

The following sequences are shown together with reported protein stability index values.
# assay-name: protein stability index of a GFP-peptide fusion (GPS, HEK-293T) (PSI 1-6); higher = more stable
# cond: treatment: MLN4924 1 uM, 8 h; c terminus: a fixed tail appended

>>> value("DVSSTEEFLELSPQKLKEVISLEK [GAN]")
4.87

Request: Suppose we examine the sequence NRIGNSGVEEIKGHPFFEGVDWEH [STK38L] ; what protein stability index value has been reported?
Response: 4.45

Request: Query (sequence): EEAVILLEDLERELDEPQHEMVAH [ZSCAN9] ; field requested: protein stability index
Response: 4.2

Request: Please look up its protein stability index: QLSIERGKVLQNKQAEICQLEEKL [CCDC89]
Response: 4.45

Request: Entry ETVLALVNCISPLKYFSDFRPYFT [DENND6A] has what protein stability index?
Response: 3.21

Request: So what does the record say about protein stability index for LHSQEDDDSSSESGSGNGSSTLNP [NOL4L] ?
Response: 5.48

Request: Bench note: what protein stability index did DLSGLPLQSSKNSYSFQNPSSFDP [RNF180] show?
Response: 3.78

Request: Recorded protein stability index for MGPYNPDTCPEVGFFDVLGNDRRR [ACBD3] , please?
Response: 4.02

Request: Would you mind telling me what protein stability index value was observed for GMKIDLIDGKGRGVIATKQFSRGD [KMT5A] ?
Response: 4

Request: Recorded protein stability index for IEVKTKGGSKYLIYRRYRQFHALQ [NCF4] , please?
Response: 2.2

Request: Which protein stability index is reported for this sequence? PFHDSDPSALFSKIRRGQFCIPEH [TRIB1]
Response: 3.12

Request: What does the record list as protein stability index for LLDIKTRLEQEIATYRSLLEGQDA [KRT13] ?
Response: 3.51

Request: Dear colleague, I am looking for the recorded protein stability index of the following sequence: LLEDMRASEAFHWDERGRAAAYSP [ANKRD9]
Response: 3.18

###

# assay-name: protein stability index of a GFP-peptide fusion (GPS, HEK-293T) (PSI 1-6); higher = more stable
# cond: treatment: DMSO; c terminus: a fixed tail appended
observation-type: protein stability index
Form rule: numeric answer, no unit written next to it.

>>> value("SLLDELMEVQHFRTIYHMFIAGLC [SOAT2]")
2.59
>>> value("MLSKGLKRKREEEEEKEPLAVDSW [SERTAD1]")
4.84
>>> value("YLAHASDVLENAFAPLLDEQYDLA [GOLPH3]")
2.83
>>> value("CSCQADPRHQGHRVQPVKDTAHDF [TRIM35]")
3.42
>>> value("QDLCGVSTCDTLGMADVGTVCDPA [ADAMTS4]")
5.07

Request: I have this sequence here, TKGHPRAVSQPFRLSSSLQGSAVT [CDC14A] , and I need its recorded protein stability index.
Response: 3.49

Request: So what does the record say about protein stability index for EPSQMLKHAVVNLINYQDDAELAT [CTNNB1] ?
Response: 4.16
